assay-system: OTOL1; note: reference of the scale not given here
assay-procedure: pooled miR-30 sensor sort-seq; sequence = guide strand
condition-notes: shRNA
Response field class: string, computed from recorded sensor-assay potency score (higher = more potent) by ranges lower segment = under -0.8, middle segment = from -0.8 up to -0.2, upper segment = -0.2 and over

chain=TTTGGTAATTGGTTCTGCCATT label_value="lower segment"
chain=TTGAACTGCTTCTTATTCTGGG label_value="upper segment"
chain=TTCTCTGGACTTGAACTGCTTC label_value="middle segment"

For `TTGCTATTGTGTTCATACCAGC` , which sensor-assay potency score (higher = more potent) bin applies?
lower segment

For `TGAACTGCTTCTTATTCTGGGC` , which sensor-assay potency score (higher = more potent) bin applies?
middle segment

For `TTGGTCATTATAGAGAATCTTT` , which sensor-assay potency score (higher = more potent) bin applies?
middle segment

For `TAGAGCAGTTAAACTTCCCAGT` , which sensor-assay potency score (higher = more potent) bin applies?
middle segment

For `TTTCTCTGGACTTGAACTGCTT` , which sensor-assay potency score (higher = more potent) bin applies?
upper segment
